molecular target: human TRPM8 (Homo sapiens); experiment: Menthol-induced Ca2+ influx in HEK293 cells stably expressing human TRPM8; settings: 30 microM menthol-induced Ca2+ influx, HEK293 cells stably expressing human TRPM8, 11-point dose-response
Sequence (Q7Z2W7 whole entry): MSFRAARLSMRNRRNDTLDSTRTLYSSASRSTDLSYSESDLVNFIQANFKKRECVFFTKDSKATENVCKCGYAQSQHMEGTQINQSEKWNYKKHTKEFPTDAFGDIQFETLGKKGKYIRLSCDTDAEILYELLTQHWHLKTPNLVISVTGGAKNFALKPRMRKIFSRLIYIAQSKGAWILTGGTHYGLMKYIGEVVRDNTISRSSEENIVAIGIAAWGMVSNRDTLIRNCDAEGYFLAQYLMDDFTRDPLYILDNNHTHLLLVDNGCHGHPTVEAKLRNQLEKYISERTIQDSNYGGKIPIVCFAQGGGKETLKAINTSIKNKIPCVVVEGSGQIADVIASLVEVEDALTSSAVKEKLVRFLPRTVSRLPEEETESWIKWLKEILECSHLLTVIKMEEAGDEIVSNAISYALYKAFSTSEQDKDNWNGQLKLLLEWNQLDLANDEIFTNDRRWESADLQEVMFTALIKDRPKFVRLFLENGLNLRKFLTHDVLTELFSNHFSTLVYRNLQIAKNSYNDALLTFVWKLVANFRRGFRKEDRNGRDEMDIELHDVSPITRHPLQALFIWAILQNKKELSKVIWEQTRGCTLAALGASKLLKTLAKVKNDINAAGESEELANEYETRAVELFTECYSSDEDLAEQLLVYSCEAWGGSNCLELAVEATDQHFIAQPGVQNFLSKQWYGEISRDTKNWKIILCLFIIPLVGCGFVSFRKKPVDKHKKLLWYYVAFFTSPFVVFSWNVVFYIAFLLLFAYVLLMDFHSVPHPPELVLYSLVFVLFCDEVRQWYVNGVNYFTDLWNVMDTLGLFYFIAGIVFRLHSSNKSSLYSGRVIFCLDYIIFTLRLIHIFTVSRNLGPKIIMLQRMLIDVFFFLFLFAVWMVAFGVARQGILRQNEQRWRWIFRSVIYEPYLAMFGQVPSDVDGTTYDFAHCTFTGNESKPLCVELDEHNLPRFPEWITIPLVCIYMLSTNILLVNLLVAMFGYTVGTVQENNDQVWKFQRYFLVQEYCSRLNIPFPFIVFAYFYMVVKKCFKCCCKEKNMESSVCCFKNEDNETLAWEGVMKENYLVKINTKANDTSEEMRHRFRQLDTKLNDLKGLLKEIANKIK
Quantity name: IC50

Worked examples follow.
O=C(O)c1ccc(S(=O)(=O)N(Cc2ccc3c(cnn3C3CC3)c2)c2ncc(Cl)cc2Cl)cc1: < 1000 nM
Cn1nnc2cc(CN(c3ncc(C(F)(F)F)cc3Cl)S(=O)(=O)c3ccc(C(=O)O)cc3)ccc21: 1000 to 10000 nM
O=C(O)c1ccc(S(=O)(=O)N(Cc2ccc3c(cnn3C3CCOCC3)c2)c2ncc(C(F)(F)F)cc2Cl)cc1: < 1000 nM
CCn1ncc2cc(CN(c3ncc(Cl)cc3Cl)S(=O)(=O)c3ccc(C(=O)O)cc3)ccc21: < 1000 nM

Reported IC50 for "Cn1ncc2ccc(CN(c3ncc(C(F)(F)F)cc3Cl)S(=O)(=O)c3ccc(C(=O)O)cc3)cc21" was < 1000 nM

compound "CC(C)(O)Cn1ncc2cc(CN(c3ncc(C(F)(F)F)cc3Cl)S(=O)(=O)c3ccc(C(=O)O)cc3)ccc21" , IC50 observed: 1000 to 10000 nM

Notebook: "COCCn1ncc2cc(CN(c3ncc(C(F)(F)F)cc3Cl)S(=O)(=O)c3ccc(C(=O)O)cc3)ccc21" , IC50 read as < 1000 nM
